- Assay Text: A CellTox Green Cytotoxicity Assay to monitor cytotoxicity in HepG2 cells - 16 hour (AID 1224876); note: % is set by controls: 0 for no effect and ±100 for the full control effect; nearly all actives have a fitted effect of over 45% in size
- Experimental Parameters: CellTox Green fluorescence; series mostly up to 76.8 µM
Records with an inconclusive call do not appear. The source made the active and inactive calls. Calls come from the whole dose curve; as a rule, active = well fitted activation curve with a large enough effect in the repeat runs; inconclusive = weak or mixed curves; inactive = flat fitted curve, though single readings scatter.
# valid calls are true = active, false = inactive; nothing else

Use the examples below as a reference point.
OC(CCN1CCCC1)(c1ccccc1)C1CCCCC1 (centres undefined) :: false
CCCCCCCCC(CCCCCC)C(=O)O (centres undefined) :: false
CCOC(C)=O :: false
C[C@@]12CCC[C@H]1[C@@H]1CC[C@H]3C[C@@H](O)CC[C@]3(C)[C@H]1CC2 :: false
C[C@@H]1CC(=O)NN=C1c1ccc(NN=C(C#N)C#N)cc1 :: false
Brc1cc(Br)c(Oc2cc(Br)c(Br)cc2Br)cc1Br :: false
O=C(O)c1cccc(-c2noc(-c3ccccc3F)n2)c1 :: false
C=C1CCC2CC1C2(C)C (centres undefined) :: false
CCC1CO1 (centres undefined) :: false
CCOc1ccccc1O[C@H](c1ccccc1)[C@H]1CNCCO1 :: false

Q: What did this assay record as the result for CCCCCCNC(=O)n1cc(F)c(=O)[nH]c1=O ?
A: false

Q: What did this assay record as the result for CC1CC(OC(=O)C(O)c2ccccc2)CC(C)(C)N1C (centres undefined) ?
A: false

* * *

- Assay Text: qHTS assay to identify small molecule antagonists of the constitutive androstane receptor (CAR) signaling pathway - cell viability counter screen (AID 1224837); note: nearly all actives have a fitted effect of over 45% in size
- Experimental Parameters: HepG2-CYP2B6-hCAR viability, CellTiter-Fluor, 23 h, co-treated with 50 nM CITCO; series mostly up to 92.4 µM
Records with an inconclusive call do not appear. Active and inactive are the calls of the source. Calls come from the whole dose curve; as a rule, active = well fitted cell-killing curve with a large enough effect in the repeat runs; inconclusive = weak or mixed curves, or effect the other way; inactive = flat fitted curve, though single readings scatter.
# valid calls are active, inactive; nothing else

C[C@@H]1CC(=O)NN=C1c1ccc(NN=C(C#N)C#N)cc1 :: active
O=C(Nc1cccc2c(=O)cc(-c3nn[nH]n3)oc12)c1ccc(OCCCCc2ccccc2)cc1 :: inactive
CC(O)c1ccccc1 (stereo unspecified) :: inactive
COC(=O)CS :: inactive
O=[N+]([O-])c1cc(C2CCCCC2)c(O)c([N+](=O)[O-])c1 :: active
CCC1CO1 (stereo unspecified) :: inactive
O=[N+]([O-])c1ccc(O/N=C/c2cc(Br)c(O)c(Br)c2)c([N+](=O)[O-])c1 :: active
OC1(c2ccccc2)CCNCC1 :: inactive

Q: What did this assay record as the result for C=C/C(C)=C/C/C=C(\C)CCC=C(C)C ?
A: inactive

Q: What did this assay record as the result for N#CCCN(CCO)CCO ?
A: inactive

Q: What did this assay record as the result for COC(=O)C1=C(C)NC(C)=C(C(=O)O[C@@H]2CCCN(Cc3ccccc3)C2)[C@@H]1c1cccc([N+](=O)[O-])c1 ?
A: inactive

* * *

- Assay Text: qHTS assay to identify small molecule agonists of the RXR signaling pathway - cell viability counter screen (AID 1159529);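 note: HEK 293T cells carrying an RXR-alpha UAS beta-lactamase reporter; % is set by controls: 0 for no effect and ±100 for the full control effect; nearly all actives have a fitted effect of over 50% in size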
- Experimental Parameters: RXR-alpha-bla HEK293T viability, CellTiter-Glo, 16 h; series mostly up to 76.8 µM
Records with an inconclusive call do not appear. The source made the active and inactive calls. Calls follow the shape of the dose curve; as a rule, active = well fitted cell-killing curve with a large enough effect in the repeat runs; inconclusive = weak or mixed curves, or effect the other way; inactive = no such curve, though single readings can be large or run the other way.
# valid calls are true (1) (active), false (0) (inactive); nothing else

COc1ccccc1N1CCN(CCCCNC(=O)c2ccc(-c3ccc(C(C)=O)cc3)cc2)CC1 :: false (0)
CCCCOc1ccc(OCCCN2CCOCC2)cc1 :: false (0)
CC1=Nc2ccc3ccccc3c2C1(C)C :: false (0)

Q: What did this assay record as the result for C[C@@H]1CC(=O)NN=C1c1ccc(NN=C(C#N)C#N)cc1 ?
A: false (0)

Q: What did this assay record as the result for Clc1cc(Cl)nc(Cl)n1 ?
A: false (0)

* * *

- Assay Text: qHTS assay for small molecule agonists of the antioxidant response element (ARE) signaling pathway (AID 743202); for activation: % is set by controls: 0 for no effect and ±100 for the full control effect
- Experimental Parameters: HepG2 ARE-bla reporter, beta-lactamase FRET, 16 h; series mostly up to 73.3 µM
Inconclusive results are not listed. Activity calls are given as the source filed them. The call rests on the fitted dose curve; in most records, active means well fitted activation curve with a large enough effect in the signal ratio in the repeat runs (not every such curve was filed as active); inconclusive means weak or mixed curves, or effect the other way; inactive means no such curve, though single readings can be large or run the other way; the % refers to the signal ratio.
# valid calls are t = active, f = inactive; nothing else

Use the examples below as a reference point.
O[C@@H]1CO[C@H]2[C@@H]1OC[C@@H]2O :: f
C=COCC(C)C :: f
CCCCCCCCC(CCCCCC)C(=O)O (configuration not stated) :: f
CCOC(=O)c1ccc(C#Cc2ccc3c(c2)C(C)(C)CCS3)nc1 :: t
Cc1cc(O)c(C)c(C)c1O :: t
CCCCN(CCN(CCCC)C(=O)N1CCOCC1)C(=O)N1CCOCC1 :: f

Q: What did this assay record as the result for CCC(C)(C)OC ?
A: f

Q: What did this assay record as the result for O=C(O)CCC(=O)C(=O)O ?
A: f

Q: What did this assay record as the result for OC1(c2ccccc2)CCNCC1 ?
A: f

* * *

- Assay Text: qHTS assay for small molecule agonists of the p53 signaling pathway (AID 651631); note: % is set by controls: 0 for no effect and ±100 for the full control effect; nearly all actives have a fitted effect of over 15% in size
- Experimental Parameters: HCT-116 p53RE-bla reporter, beta-lactamase FRET ratio, 16 h; series mostly up to 73.3 µM
Results filed as inconclusive are left out. Activity calls are given as the source filed them. The call rests on the fitted dose curve.
Measured Property: Potency

// below: answered molecules
CCOC(=O)c1ccc(OCCN2C[C@H](O)[C@@H](O)[C@H](O)[C@H]2CO)cc1 :: inactive
CC/C=C1/OC(=O)c2ccccc21 :: inactive
COc1ccccc1N1CCN(CCCCNC(=O)c2ccc(-c3ccc(C(C)=O)cc3)cc2)CC1 :: inactive
C=C(C)C(=O)OCCCCCCCCCCCCC :: inactive
O[C@@H]1CO[C@H]2[C@@H]1OC[C@@H]2O :: inactive
CCCCCCCCCI :: inactive

Record Potency for all entries; do not skip any.
1. CC(=O)OCC[N+](C)(C)C
2. CC1(C)[C@@H](OC(=O)CCC(=O)O)CC[C@]2(C)[C@H]3C(=O)C=C4[C@@H]5C[C@@](C)(C(=O)O)CC[C@]5(C)CC[C@@]4(C)[C@]3(C)CC[C@@H]12

A:
1: inactive; 2: inactive

* * *

- Tested Target: Nuclear receptor subfamily 1 group I member 3 (Homo sapiens)
- Assay Text: qHTS assay to identify small molecule antagonists of the constitutive androstane receptor (CAR) signaling pathway (AID 1224838);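 note: HepG2 cells stably expressing hCAR with CYP2B6 luciferase reporter stimulated by CITCO; % is set by controls: 0 for no effect and ±100 for the full control effect; nearly all actives have a fitted effect of over 40% in size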
- Experimental Parameters: HepG2-CYP2B6-hCAR luciferase, CITCO-stimulated, 24 h; series mostly up to 92.4 µM
Records with an inconclusive call do not appear. Active and inactive are the calls of the source. Calls come from the whole dose curve; as a rule, active = well fitted inhibition curve with a large enough effect in the repeat runs; inconclusive = weak or mixed curves, or effect the other way; inactive = no such curve, though single readings can be large or run the other way.
Measured Property: outcome

COc1ccc(OC(=O)N(CC(=O)O)Cc2ccc(OCCc3nc(-c4ccccc4)oc3C)cc2)cc1 :: inactive
CC(C)c1nc(CN(C)C(=O)N[C@H](C(=O)N[C@@H](Cc2ccccc2)C[C@H](O)[C@H](Cc2ccccc2)NC(=O)OCc2cncs2)C(C)C)cs1 :: inactive
O=C1Cc2ccccc2N1c1c(Cl)cccc1Cl :: inactive

* * *

- Tested Target: Cytochrome P450 1A2 (Homo sapiens)
- Assay Text: Cytochrome P450 Family 1 Subfamily A Member 2 (CYP1A2) small molecule antagonists: luciferase reporter qHTS assay (AID 1671199); note: nearly all actives have a fitted effect of over 50% in size
- Experimental Parameters: P450-Glo CYP1A2 enzyme, luciferin luminescence, 1 h; series mostly up to 53 µM
- Source text: National Center for Advancing Translational Sciences [NCATS] U.S. Environmental Protection Agency [EPA] National Institutes of Environmental Health Sciences [NIEHS] National Toxicology Program [NTP] U.S. Food and Drug Administration [FDA] Cytochrome P450 (CYP) enzymes are membrane-bound hemeproteins that play a key role in metabolism of drugs and xenobiotics. […] The luciferin products formed are detected with a luciferin detection reagent, and the amount of light produced is proportional to CYP activity. […]
Records with an inconclusive call do not appear. Active and inactive are the calls of the source. Calls come from the whole dose curve; as a rule, active = well fitted inhibition curve with a large enough effect in the repeat runs; inconclusive = weak or mixed curves; inactive = no such curve, though single readings can be large or run the other way.
# valid calls are active, inactive; nothing else

Use the examples below as a reference point.
CCCCCC[C@@H](O)C/C=C\CCCCCCCC(=O)O :: inactive
CCCC(C(=O)OCCN(CC)CC)(c1ccccc1)c1ccccc1 :: inactive
CCCCCCCCCCC(=O)O :: inactive
CCCCCC#CC(=O)OC :: inactive
O=C1c2ccccc2C(=O)c2c(O)c(O)cc(O)c21 :: active

Q: What did this assay record as the result for CN(C)CCN1C(=O)c2ccccc2N(C)c2ccccc21 ?
A: inactive

Q: What did this assay record as the result for CC1=C(Br)C(=O)C(Br)=C/C1=C(/c1ccccc1S(=O)(=O)O)c1cc(Br)c(O)c(Br)c1C ?
A: active

Q: What did this assay record as the result for CC(C)(C)CC(=O)OCC(=O)[C@@]1(O)CC[C@H]2[C@@H]3CCC4=CC(=O)C=C[C@]4(C)[C@H]3[C@@H](O)C[C@@]21C ?
A: inactive

Q: What did this assay record as the result for C=CCc1ccccc1OCC(O)CNC(C)C (stereo not given) ?
A: active

Q: What did this assay record as the result for Cc1cc(O)c(C)c(C)c1O ?
A: active

Q: What did this assay record as the result for N#CCCN(CCO)CCO ?
A: inactive

Q: What did this assay record as the result for Cc1ccc(Cl)c(Nc2ccccc2C(=O)O)c1Cl ?
A: inactive

Q: What did this assay record as the result for C[C@@]12CCC[C@H]1[C@@H]1CC[C@H]3C[C@@H](O)CC[C@]3(C)[C@H]1CC2 ?
A: inactive

Q: What did this assay record as the result for C[C@H]1c2cccc(O)c2C(O)=C2C(=O)[C@]3(O)C(O)=C(C(N)=O)C(=O)[C@@H](N(C)C)[C@@H]3[C@@H](O)[C@@H]21 ?
A: inactive

Q: What did this assay record as the result for CN1C(=O)c2ccccc2C1=O ?
A: active

Q: What did this assay record as the result for CCCCN1CCCC1C(=O)Nc1c(C)cc(C)cc1C (stereo not given) ?
A: inactive

Q: What did this assay record as the result for C/C=C(/C(=C/C)c1ccc(O)cc1)c1ccc(O)cc1 ?
A: inactive

Q: What did this assay record as the result for CC(C)=CCC/C(C)=C/CC/C(C)=C/CCC(=O)OC/C=C(\C)CCC=C(C)C ?
A: inactive

Q: What did this assay record as the result for CCOC(=O)c1ccc(I)cc1 ?
A: active

Q: What did this assay record as the result for CC(C)=CC(=O)C=C(C)C ?
A: active

Q: What did this assay record as the result for O=C1c2ccccc2C(=O)C1c1nc2ccccc2c(Br)c1O ?
A: active

Q: What did this assay record as the result for C[C@]12CC[C@@H]3c4ccc(O)cc4CC[C@H]3[C@@H]1CC[C@@H]2OC(=O)CCC1CCCC1 ?
A: active

Q: What did this assay record as the result for C=C1CCC2CC1C2(C)C (stereo not given) ?
A: inactive

Q: What did this assay record as the result for CNC(=O)c1cnn(-c2nc(N)c3ncn([C@@H]4O[C@H](CO)[C@@H](O)[C@H]4O)c3n2)c1 ?
A: inactive

Q: What did this assay record as the result for C[C@@H](O)[C@H]1C(=O)N2C(C(=O)O)=C([C@H]3CCCO3)S[C@H]12 ?
A: inactive

Q: What did this assay record as the result for CC1(C)[C@H](C(=O)O)N2C(=O)C[C@H]2S1(=O)=O ?
A: inactive

Q: What did this assay record as the result for CC(C)(C)C(=O)C(=O)O ?
A: inactive
